tested on: mice; test: Acute toxicity in mice; assay type: in vivo; conditions: intraperitoneal, 1,000 mg/kg; 7th day
Below, each entry is listed with its recorded Mortality.

COMPOUND: CC(=O)Nc1ccc(C(C)C(=O)O)cc1 (stereo not drawn)
Mortality: 0/5
--
COMPOUND: CCOC(=O)Cc1ccc(N)cc1 [Compound 1, Ethyl p-aminophenylacetate]
Mortality: 1/5
--
COMPOUND: CC(=O)Nc1ccc(CC(=O)O)cc1 [Compound 10, 4-Acetylaminophenylacetate]
Mortality: 0/5
--
COMPOUND: CCCC(=O)Nc1ccc(CC(=O)O)cc1
Mortality: 0/5
--
COMPOUND: Cc1ccc(C(=O)Nc2ccc(CC(=O)O)cc2)cc1
Mortality: 5/5

// query So what does the record say about Mortality for CC(C)C(=O)Nc1ccc(CC(=O)O)cc1 ?
// result 1/5

// query So what does the record say about Mortality for CC(=O)Nc1ccc(C(C)(C)C(=O)O)cc1 ?
// result 0/5

// query So what does the record say about Mortality for CCOC(=O)Cc1ccc(NC(=O)C(C)C)cc1 [Compound 6, Ethyl 4-(isobutyrylamino)phenylacetate] ?
// result 0/5

// query So what does the record say about Mortality for CCOC(=O)C(C)c1ccc(NC(C)=O)cc1 (stereo not drawn) [Compound 9, Ethyl 2-(4-acetylaminophenyl)propionate] ?
// result 0/5

----------
Below, each entry is listed with its recorded Mortality.
system: mice; assay: Acute toxicity in mice; type: in vivo; details: oral, 5,000 mg/kg; 7th day

Consider the following illustrative entries.
MOLECULE: CC(=O)Nc1ccc(C(C)C(=O)O)cc1 (stereo not drawn) [Compound 12, 2-(4-Acetylaminophenyl)propionic acid]
MEASURED_TARGET: mice
Mortality: 0/5
--
MOLECULE: CCOC(=O)Cc1ccc(NC(=O)C(C)C)cc1 [Compound 6, Ethyl 4-(isobutyrylamino)phenylacetate]
MEASURED_TARGET: mice
Mortality: 1/5
--
MOLECULE: CC(=O)Nc1ccc(CC(=O)O)cc1 [Compound 10, 4-Acetylaminophenylacetate]
MEASURED_TARGET: mice
Mortality: 0/5
--
MOLECULE: Cc1ccc(C(=O)Nc2ccc(CC(=O)O)cc2)cc1 [Compound 15]
MEASURED_TARGET: mice
Mortality: 5/5
--
MOLECULE: CC(C)C(=O)Nc1ccc(CC(=O)O)cc1 [Compound 13]
MEASURED_TARGET: mice
Mortality: 0/5

// query So what does the record say about Mortality for CC(=O)Nc1ccc(C(C)(C)C(=O)O)cc1 [Compound 11] ?
// result 0/5

Attribution: patent US4720506A
